Attribution: paper PMC8699473

Each record here notes measured Autosampler (72h, 4°C) Accuracy [%].
Test: Autosampler stability of ready for injection samples
Type: physicochemical, human
Conditions: validation standard ULOV
Give just the numeric value; % need not be written.

Example cases with answers are listed next.
{"MOLECULE": "CCN(CC)CCNC(=O)c1c(C)[nH]c(/C=C2\\C(=O)Nc3ccc(F)cc32)c1C [Sunitinib]", "Autosampler (72h, 4°C) Accuracy [%] (%)": 119.5}
{"MOLECULE": "Cc1c(C(=O)Nc2ccc(N3C[C@@H](C)O[C@@H](C)C3)nc2)cccc1-c1ccc(OC(F)(F)F)cc1 [Sonidegib]", "Autosampler (72h, 4°C) Accuracy [%] (%)": 98.1}
{"MOLECULE": "CCOc1cc2ncc(C#N)c(Nc3ccc(OCc4ccccn4)c(Cl)c3)c2cc1NC(=O)/C=C/CN(C)C [Neratinib]", "Autosampler (72h, 4°C) Accuracy [%] (%)": 96.0}

Need Autosampler (72h, 4°C) Accuracy [%] of C[C@]12CC[C@H](O)CC1=CC[C@@H]1[C@@H]2CC[C@]2(C)C(c3cccnc3)=CC[C@@H]12 [Abiraterone] , thanks.
104.1

Need Autosampler (72h, 4°C) Accuracy [%] of C[C@@H](Oc1cc(-c2cnn(C3CCNCC3)c2)cnc1N)c1c(Cl)ccc(F)c1Cl [Crizotinib] , thanks.
94.7

Need Autosampler (72h, 4°C) Accuracy [%] of CS(=O)(=O)c1ccc(C(=O)Nc2ccc(Cl)c(-c3ccccn3)c2)c(Cl)c1 [Vismodegib] , thanks.
99.7

Need Autosampler (72h, 4°C) Accuracy [%] of CS(=O)(=O)CCNCc1ccc(-c2ccc3ncnc(Nc4ccc(OCc5cccc(F)c5)c(Cl)c4)c3c2)o1 [Lapatinib] , thanks.
98.8

Need Autosampler (72h, 4°C) Accuracy [%] of O=c1[nH]c(=O)n([C@H]2C[C@H](O)[C@@H](CO)O2)cc1C(F)(F)F [Trifluridine] , thanks.
98.4

Need Autosampler (72h, 4°C) Accuracy [%] of CC(C)(C)c1nc(-c2cccc(NS(=O)(=O)c3c(F)cccc3F)c2F)c(-c2ccnc(N)n2)s1 [Dabrafenib] , thanks.
101.4
